# Test system: UO-31 renal
# Assay protocol: NCI-60 one-dose screen, 48 h (100 = growth as untreated, 0 = no growth, -100 = all killed)
# Measurement context: 10 µM unless noted
This is part of a sample that, as a whole, favours compounds with a hit. Of some 83,000 tested, about 20% had one in any assay.
Mark true only when growth stays strictly below 70%. Values equal to the cut-off are false.

Lab note: growth threshold 70%. Does this compound come in strictly under it? `CC(=O)c1ccc2c(c1)c1ccccc1n2C`
true

Field entry: `COc1cc2ncnc(-n3ncc4cc(NC(=O)Nc5ccc(Cl)c(C)c5)ccc43)c2cc1OC`
false

Field entry: `N#Cc1c(N)nc(Nc2nc3ccccc3[nH]2)nc1-c1ccc(Cl)cc1`
false

Field entry: COc1cc(NC(C)CCCN)c2nccc(C)c2c1OC (stereo not drawn)
false

Field entry: `c1ccc(C(=NNc2nc3ccccc3o2)c2ccccn2)nc1`
true

Field entry: COC1(OC)N=C(N)C2(C#N)C3(C(=O)Nc4ccccc43)C12C#N (stereo not drawn)
true

Field entry: `CCOC(=O)c1cc(-c2ccc(OC)cc2)[nH]c1NNC(=O)CCOC`
false

Field entry: `CC(=O)N1CCN(CCNC(=O)n2cc(-c3ccncc3)c(-c3ccc(O)c(Cl)c3)n2)CC1`
false

Field entry: `Nc1nc(-c2cccc(Br)c2)cc(-c2cc3ccccc3oc2=O)n1`
true

Field entry: CCS(=O)(=O)N[C@@H]1O[C@H](COC(C)=O)C(OC(C)=O)[C@H](OC(C)=O)C1OC(C)=O (stereo partly drawn)
false

Field entry: C=CCC(CCC(CC=C)C(=O)OCC)C(=O)OCC (stereo not drawn)
false

Field entry: `CC(C)OC(=O)c1ccc2n1CCCc1cnc(Nc3ccccc3)nc1-2`
true

Field entry: `CC(=O)Nc1ccc(S(=O)(=O)Cl)cc1`
false

Field entry: `CCCCCCCCc1ccc(CCC(N)(CO)CO)cc1`
true

Field entry: CC(C)OCC1CO1 (stereo not drawn)
false

Field entry: `CC1(C)NC(=S)NC1=O`
false

Field entry: `COC(=O)/C=C/c1cc(O)c2oc(-c3ccc(O)c(O)c3)c(C(=O)OC)c2c1`
true

Field entry: CCN(CC)CCCC(C)Nc1c(C)cnc2cc(Cl)c(C)cc12 (stereo not drawn)
true

Field entry: `COC(=O)Nc1nc2ccc(C(=O)c3ccccc3N(C)C3COC3)cc2[nH]1`
true

Field entry: `COc1ccc2c(c1)/C(=C1/S/C(=N/c3nnc(C)s3)NC1=O)C(=O)N2Cc1ccc(Br)cc1`
true

Field entry: `Nc1ccc(N=Nc2ccccc2)c2cc(S(=O)(=O)O)ccc12`
false

Field entry: `COc1cc(OC)c(/C=C/c2ccc3ccccc3[n+]2C)c(OC)c1`
true
